Reported values: log10 IC50 for ALK tyrosine kinase receptor (Homo sapiens, UniProt Q9UM73), one per item.
REPORTED_PROPERTY: log10 IC50 (log10 of the value in nM)

- COMPOUND: "COCc1cn(-c2cc(C)n[nH]2)c2nc(OC(C)c3ccc(F)cn3)ccc12 (racemic; 15)"
  REPORTED_PROPERTY: "log10 IC50"
  EXPERIMENTAL_VALUE: 0.51
- COMPOUND: "Cc1cc(-n2cc(C(=O)N3CCOCC3)c3ccc(N[C@@H](C)c4ccc(F)cn4)nc32)[nH]n1"
  REPORTED_PROPERTY: "log10 IC50"
  EXPERIMENTAL_VALUE: 0.40
- COMPOUND: "Cc1cc(-n2ccc3ccc(N[C@@H](C)c4ccc(F)cc4F)nc32)[nH]n1"
  REPORTED_PROPERTY: "log10 IC50"
  EXPERIMENTAL_VALUE: 1.15
- COMPOUND: "Cc1cc(-n2cc(S(C)(=O)=O)c3ccc(N[C@@H](C)c4ccc(F)cc4F)nc32)n[nH]1"
  REPORTED_PROPERTY: "log10 IC50"
  EXPERIMENTAL_VALUE: 0.08
- COMPOUND: "Cc1cc(-n2cc(S(=O)(=O)C(C)C)c3ccc(N[C@@H](C)c4ccc(F)cn4)nc32)n[nH]1"
  REPORTED_PROPERTY: "log10 IC50"
  EXPERIMENTAL_VALUE: 1.26
- COMPOUND: "Cc1cc(-n2cc(C(=O)N3CCO[C@@H](C)C3)c3ccc(O[C@@H](C)c4ccc(F)cn4)nc32)n[nH]1"
  REPORTED_PROPERTY: "log10 IC50"
  EXPERIMENTAL_VALUE: 0.46
- COMPOUND: "Cc1cc(-n2cc(C(=O)N3CCOCC3)c3ccc(OC(C)c4ccc(F)cn4)nc32)[nH]n1 (racemic)"
  REPORTED_PROPERTY: "log10 IC50"
  EXPERIMENTAL_VALUE: 0.79
- COMPOUND: "Cc1cc(-n2cc(C(=O)N3CCN(C)CC3)c3ccc(N[C@@H](C)c4ccc(F)cn4)nc32)[nH]n1"
  REPORTED_PROPERTY: "log10 IC50"
  EXPERIMENTAL_VALUE: 0.79
- COMPOUND: "CCS(=O)(=O)c1cn(-c2cc(C)[nH]n2)c2nc(N[C@@H](C)c3ccc(F)cn3)ccc12"
  REPORTED_PROPERTY: "log10 IC50"
  EXPERIMENTAL_VALUE: 0.98

====

- TEST_SUMMARY: Unbound brain-to-plasma concentration ratio in Jcl-ICR mouse at 100 mg/kg, ip measured at 2 hrs by LC/MS/MS analysis
- Assay type: ADME, organism-based
- CONDITION_SUMMARY: read-out: K(p,uu,brain)
REPORTED_PROPERTY: Kp uu at 2 h

- MOLECULE_SMILES: "Cc1cc(-n2cc(C(=O)N3CCO[C@@H](C)C3)c3ccc(O[C@@H](C)c4ccc(F)cn4)nc32)n[nH]1"
  EXPERIMENTAL_VALUE: 0.11

====

- TEST_SUMMARY: Drug level in Jcl-ICR mouse brain at 100 mg/kg, ip measured at 0.5 hrs by LC/MS/MS analysis
- Assay type: ADME, organism-based
- CONDITION_SUMMARY: read-out: Drug uptake

- MOLECULE_SMILES: "Cc1cc(-n2cc(C(=O)N3CCO[C@@H](C)C3)c3ccc(O[C@@H](C)c4ccc(F)cn4)nc32)n[nH]1"
  concentration at 0.5 h [ng/mL]: 33000

====

Reported efflux ratio at 2 h, 10 µM values follow for various compounds
- EXPERIMENTAL_TARGET: MDR1 (ABCB1, P-gp) (Homo sapiens, UniProt P08183)
- Sequence (P08183 whole entry): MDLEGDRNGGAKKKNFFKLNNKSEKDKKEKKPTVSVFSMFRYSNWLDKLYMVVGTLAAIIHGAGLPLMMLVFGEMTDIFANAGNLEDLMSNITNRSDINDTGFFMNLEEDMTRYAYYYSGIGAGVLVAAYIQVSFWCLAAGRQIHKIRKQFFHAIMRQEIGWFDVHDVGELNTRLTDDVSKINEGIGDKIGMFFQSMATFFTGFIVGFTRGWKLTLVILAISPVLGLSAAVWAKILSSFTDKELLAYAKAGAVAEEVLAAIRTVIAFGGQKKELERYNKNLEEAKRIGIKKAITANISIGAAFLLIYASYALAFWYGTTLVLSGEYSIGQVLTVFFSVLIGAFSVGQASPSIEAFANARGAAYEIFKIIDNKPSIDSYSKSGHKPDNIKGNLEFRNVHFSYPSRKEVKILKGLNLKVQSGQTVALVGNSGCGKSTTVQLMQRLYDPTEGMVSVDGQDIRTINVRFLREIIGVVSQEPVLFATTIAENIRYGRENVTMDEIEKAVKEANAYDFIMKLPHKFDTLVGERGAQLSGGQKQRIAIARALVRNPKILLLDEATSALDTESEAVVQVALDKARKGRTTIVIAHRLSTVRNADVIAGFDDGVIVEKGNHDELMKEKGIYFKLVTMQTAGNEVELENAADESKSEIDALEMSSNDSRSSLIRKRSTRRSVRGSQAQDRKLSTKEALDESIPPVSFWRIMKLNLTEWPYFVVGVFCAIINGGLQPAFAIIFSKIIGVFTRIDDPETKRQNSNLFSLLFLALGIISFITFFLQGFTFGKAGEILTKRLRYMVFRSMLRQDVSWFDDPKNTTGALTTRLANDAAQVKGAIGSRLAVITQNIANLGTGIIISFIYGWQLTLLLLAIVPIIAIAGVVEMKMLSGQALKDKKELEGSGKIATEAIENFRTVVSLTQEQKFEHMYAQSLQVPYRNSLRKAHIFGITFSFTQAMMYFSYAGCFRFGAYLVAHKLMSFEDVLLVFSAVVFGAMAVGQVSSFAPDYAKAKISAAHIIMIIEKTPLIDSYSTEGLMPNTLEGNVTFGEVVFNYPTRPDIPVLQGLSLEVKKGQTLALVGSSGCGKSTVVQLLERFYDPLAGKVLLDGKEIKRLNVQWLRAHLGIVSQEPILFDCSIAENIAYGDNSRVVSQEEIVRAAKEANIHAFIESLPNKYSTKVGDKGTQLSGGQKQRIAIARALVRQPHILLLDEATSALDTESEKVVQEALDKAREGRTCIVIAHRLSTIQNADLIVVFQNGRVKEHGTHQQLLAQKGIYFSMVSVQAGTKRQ
- TEST_SUMMARY: Substrate activity at human MDR1 expressed in pig LLC-PK1 cells assessed as efflux ratio of apparent permeability across basolateral to apical over apical to basolateral side at 10 uM after 2 hrs by LC/MS/MS analysis
- Format: ADME, cell-based

- COMPOUND: "Cc1cc(-n2cc(C(=O)N3CCOCC3)c3ccc(N[C@@H](C)c4ccc(F)cn4)nc32)[nH]n1"
  efflux ratio at 2 h, 10 µM: 18
- COMPOUND: "Cc1cc(-n2cc(C(=O)N3CCOCC3)c3ccc(OC(C)c4ccc(F)cn4)nc32)[nH]n1 (racemic)"
  efflux ratio at 2 h, 10 µM: 3.1
- COMPOUND: "Cc1cc(-n2cc(C(=O)N3CCO[C@@H](C)C3)c3ccc(O[C@@H](C)c4ccc(F)cn4)nc32)n[nH]1"
  efflux ratio at 2 h, 10 µM: 1
- COMPOUND: "Cc1cc(-n2cc(C(=O)N3CCO[C@H](C)C3)c3ccc(O[C@H](C)c4ccc(F)cn4)nc32)[nH]n1 (relative stereo)"
  efflux ratio at 2 h, 10 µM: 1.3

====

- TEST_SUMMARY: Drug level in Jcl-ICR mouse plasma at 100 mg/kg, ip measured at 2 hr by LC/MS/MS analysis
- Type: ADME, organism-based

- MOLECULE_SMILES: "Cc1cc(-n2cc(C(=O)N3CCO[C@@H](C)C3)c3ccc(O[C@@H](C)c4ccc(F)cn4)nc32)n[nH]1"
  concentration at 2 h [ng/mL]: 11600

====

- TEST_SUMMARY: Drug level in Jcl-ICR mouse plasma at 100 mg/kg, ip measured at 1 hr by LC/MS/MS analysis
- Type: ADME, organism-based
REPORTED_PROPERTY: concentration at 1 h (ng/mL)

- MOLECULE_SMILES: "Cc1cc(-n2cc(C(=O)N3CCO[C@@H](C)C3)c3ccc(O[C@@H](C)c4ccc(F)cn4)nc32)n[nH]1"
  EXPERIMENTAL_VALUE: 26200

====

- EXPERIMENTAL_TARGET: UniProtKB P04629
- Sequence (P04629 whole entry, the tested form may be a part): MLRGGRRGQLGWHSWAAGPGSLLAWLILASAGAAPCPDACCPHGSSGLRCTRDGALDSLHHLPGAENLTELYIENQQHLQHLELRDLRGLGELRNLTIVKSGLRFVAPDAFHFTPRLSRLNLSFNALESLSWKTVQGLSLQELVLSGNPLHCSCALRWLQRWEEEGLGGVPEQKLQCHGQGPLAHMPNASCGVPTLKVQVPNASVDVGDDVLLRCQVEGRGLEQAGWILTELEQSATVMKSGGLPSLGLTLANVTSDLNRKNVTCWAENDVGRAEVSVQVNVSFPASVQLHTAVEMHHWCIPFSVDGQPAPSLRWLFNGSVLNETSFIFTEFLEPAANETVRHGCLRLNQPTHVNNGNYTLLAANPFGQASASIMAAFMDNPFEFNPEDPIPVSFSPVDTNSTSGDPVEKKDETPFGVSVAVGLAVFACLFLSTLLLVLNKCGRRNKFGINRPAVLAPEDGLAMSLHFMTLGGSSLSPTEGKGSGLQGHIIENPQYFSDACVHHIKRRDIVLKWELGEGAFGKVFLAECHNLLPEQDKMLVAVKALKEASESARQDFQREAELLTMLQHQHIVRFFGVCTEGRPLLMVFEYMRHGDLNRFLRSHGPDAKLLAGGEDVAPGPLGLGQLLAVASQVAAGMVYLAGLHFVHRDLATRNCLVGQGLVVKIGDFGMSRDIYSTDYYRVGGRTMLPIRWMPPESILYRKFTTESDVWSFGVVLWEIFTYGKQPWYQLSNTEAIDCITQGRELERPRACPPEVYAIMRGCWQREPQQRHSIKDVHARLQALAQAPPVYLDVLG
- TEST_SUMMARY: Inhibition of N-terminal GST-tagged human TrkA kinase domain (436 to 790 residues) expressed in baculovirus expression system using biotin-poly-GT as substrate pre-incubated for 5 mins followed by ATP addition and measured after 60 mins by alpha screen assay
REPORTED_PROPERTY: log10 of IC50 (log10 of the value in nM)

- MOLECULE: "Cc1cc(-n2cc(C(=O)N3CCO[C@@H](C)C3)c3ccc(O[C@@H](C)c4ccc(F)cn4)nc32)n[nH]1"
  REPORTED_PROPERTY: "log10 of IC50"
  EXPERIMENTAL_VALUE: 3.41
- MOLECULE: "Cc1cc(-n2cc(C(=O)N3CCOCC3)c3ccc(N[C@@H](C)c4ccc(F)cn4)nc32)[nH]n1"
  REPORTED_PROPERTY: "log10 of IC50"
  EXPERIMENTAL_VALUE: 3.08
- MOLECULE: "Cc1cc(-n2cc(S(=O)(=O)C3COC3)c3ccc(N[C@@H](C)c4ccc(F)cn4)nc32)n[nH]1"
  REPORTED_PROPERTY: "log10 of IC50"
  EXPERIMENTAL_VALUE: 2.86
- MOLECULE: "COCc1cn(-c2cc(C)n[nH]2)c2nc(OC(C)c3ccc(F)cn3)ccc12 (racemic; 16)"
  REPORTED_PROPERTY: "log10 of IC50"
  EXPERIMENTAL_VALUE: 3.18
- MOLECULE: "Cc1cc(-n2cc(C(=O)N3CCN(C)CC3)c3ccc(N[C@@H](C)c4ccc(F)cn4)nc32)[nH]n1"
  REPORTED_PROPERTY: "log10 of IC50"
  EXPERIMENTAL_VALUE: 2.40
- MOLECULE: "Cc1cc(-n2cc(S(C)(=O)=O)c3ccc(N[C@@H](C)c4ccc(F)cn4)nc32)n[nH]1"
  REPORTED_PROPERTY: "log10 of IC50"
  EXPERIMENTAL_VALUE: 1.65
- MOLECULE: "Cc1cc(-n2cc(C(=O)N3CCOCC3)c3ccc(OC(C)c4ccc(F)cn4)nc32)[nH]n1 (racemic)"
  REPORTED_PROPERTY: "log10 of IC50"
  EXPERIMENTAL_VALUE: 3.15
- MOLECULE: "Cc1cc(-n2cc(S(C)(=O)=O)c3ccc(N[C@@H](C)c4ccc(F)cc4F)nc32)n[nH]1"
  REPORTED_PROPERTY: "log10 of IC50"
  EXPERIMENTAL_VALUE: 1.18

====

- TEST_SUMMARY: Unbound brain-to-plasma concentration ratio in Jcl-ICR mouse at 100 mg/kg, ip measured at 1 hr by LC/MS/MS analysis
- Format: ADME, organism-based
- CONDITION_SUMMARY: read-out: K(p,uu,brain)

- MOLECULE_SMILES: "Cc1cc(-n2cc(C(=O)N3CCO[C@@H](C)C3)c3ccc(O[C@@H](C)c4ccc(F)cn4)nc32)n[nH]1"
  Kp uu at 1 h: 0.27
